// data source = BindingDB's records for doi:10.1016/j.bioorg.2011.10.003

# target or test system: Amine oxidase [flavin-containing] B (Homo sapiens, UniProt P27338)
# Sequence (P27338 whole entry): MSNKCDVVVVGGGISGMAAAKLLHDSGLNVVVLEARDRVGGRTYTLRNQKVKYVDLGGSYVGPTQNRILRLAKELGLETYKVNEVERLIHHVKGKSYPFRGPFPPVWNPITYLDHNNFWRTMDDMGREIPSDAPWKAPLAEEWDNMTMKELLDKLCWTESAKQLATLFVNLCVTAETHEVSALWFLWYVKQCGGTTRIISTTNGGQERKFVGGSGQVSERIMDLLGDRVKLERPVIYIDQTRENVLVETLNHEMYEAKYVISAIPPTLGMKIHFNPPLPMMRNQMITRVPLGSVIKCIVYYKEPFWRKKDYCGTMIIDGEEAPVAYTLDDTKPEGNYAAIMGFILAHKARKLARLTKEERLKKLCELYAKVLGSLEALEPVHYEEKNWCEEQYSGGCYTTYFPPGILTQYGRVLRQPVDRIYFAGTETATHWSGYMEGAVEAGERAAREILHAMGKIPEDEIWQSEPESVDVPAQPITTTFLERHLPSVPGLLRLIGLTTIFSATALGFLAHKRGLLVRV
Let's look at some compounds and their measured pIC50.
pIC50 here is simply -log10 of the concentration when that concentration is written in mol/L.

[[record]]
compound = "N#Cc1cccc(OCc2ccccc2)c1 [Benzonitrile analogue, 5b]"
experimental_result = 6.60

[[record]]
compound = "N#Cc1cccc(OCc2ccc(Br)cc2)c1 [Benzonitrile analogue, 5f]"
experimental_result = 7.39

[[record]]
compound = "N#Cc1ccc(Oc2ccc3ccccc3c2)cc1C#N [Phthalonitrile analogue, 4f]"
experimental_result = 6.61

[[record]]
compound = "N#Cc1ccc(OC/C=C/c2ccccc2)cc1C#N [Phthalonitrile analogue, 4e]"
experimental_result = 8.18

[[record]]
compound = "c1ccc(COc2ccccc2)cc1 [Benzyl phenyl ether analogue, 6a]"
experimental_result = 5.18


Query: State, for Amine oxidase [flavin-containing] B (Homo sapiens, UniProt P27338), measured pIC50 of the compound listed here: N#Cc1ccc(OCCc2ccc(Br)cc2)cc1 [Benzonitrile analogue, 5g]
Reply: 5.87

Query: State, for Amine oxidase [flavin-containing] B (Homo sapiens, UniProt P27338), measured pIC50 of the compound listed here: N#Cc1ccc(OCc2ccccc2)cc1 [Benzonitrile analogue, 5a]
Reply: 6.11

Query: State, for Amine oxidase [flavin-containing] B (Homo sapiens, UniProt P27338), measured pIC50 of the compound listed here: N#Cc1ccc(OCCCc2ccccc2)cc1C#N [Phthalonitrile analogue, 4d]
Reply: 6.87

Query: State, for Amine oxidase [flavin-containing] B (Homo sapiens, UniProt P27338), measured pIC50 of the compound listed here: N#Cc1ccc(OC/C=C/c2ccccc2)cc1 [Benzonitrile analogue, 5c]
Reply: 6.42

Query: State, for Amine oxidase [flavin-containing] B (Homo sapiens, UniProt P27338), measured pIC50 of the compound listed here: N#Cc1ccc(OCCc2ccc(Br)cc2)cc1C#N [Phthalonitrile analogue, 4i]
Reply: 6.65
